For each record, write down the corresponding Efficacy.
Test system: Leukemia K562 cell
Test: Leukemia K562 cell proliferation/viability assay (CellTiterGlo, 48 hours)
Type: cell-based
Design: unit not given here
Settings: K562 cells
Give the figure only, with no unit attached.

Input line: Item O=C(NCCN1CCOCC1)c1cccc(-c2ccc3c(c2)C(=O)Nc2cc(OC(F)(F)F)ccc2N3)c1 [NCGC00355557] with Leukemia K562 cell - Efficacy?
Output line: −91.1

Input line: Request - read-out Efficacy | tested on Leukemia K562 cell | compound O=C(NCCO)c1cccc(-c2ccc3c(c2)C(=O)Nc2cc(OC(F)(F)F)ccc2O3)c1 [NCGC00356688]
Output line: −89.8

Input line: Query Efficacy on Leukemia K562 cell for Cc1ccc(NC(=O)c2ccc(CN3CCN(C)CC3)cc2)cc1Nc1nccc(-c2cccnc2)n1 [Imatinib]
Output line: −105.5

Input line: What reported Efficacy corresponds to O=C1Nc2cc(OCCC(F)(F)F)ccc2Oc2ccc(-c3ccnc(N4CCOCC4)c3)cc21 [NCGC00481507] on Leukemia K562 cell?
Output line: −85.5

Input line: Checklist item: Efficacy tested on Leukemia K562 cell, entry O=C1Nc2cc(OC(F)(F)F)ccc2Nc2ccc(-c3cccc(C(=O)N4CCNCC4)c3)cc21 [NCGC00355569] , value?
Output line: −97.3

Input line: # get_value(readout= Efficacy, system= Leukemia K562 cell) for NCc1ccc(-c2ccc3c(c2)C(=O)Nc2cc(OC(F)(F)F)ccc2O3)s1 [NCGC00388547]
Output line: −91.7

Input line: Look up Efficacy with Leukemia K562 cell for this compound: CS(=O)(=O)Nc1cccc(-c2ccc3c(c2)C(N)=Nc2cc(OC(F)(F)F)ccc2O3)c1 [NCGC00373124]
Output line: −87.5

Input line: I'm curious: which Efficacy was measured for O=C1Nc2cc(OC(F)(F)F)ccc2Oc2ccc(-c3cccc(B(O)O)c3)cc21 [NCGC00415019] tested on Leukemia K562 cell?
Output line: −79.0

Reference source for all entries: patent US11649218B2
